# Tested on: hLiMTs
# ASSAY_TEXT: Combined HCI (HCS) and cellular ATP 3D assay in hLiMTs
# ASSAY_CONTEXT: hLiMTs; ATP endpoint; cut-off <25x Avg Cmax
READOUT_KIND: hLiMTs <25x Avg Cmax ATP

Solved entries (count: 5):
Entry Cc1ccc(C(=O)c2cc(O)c(O)c([N+](=O)[O-])c2)cc1 [tolcapone, reference compound] under hLiMTs had hLiMTs <25x Avg Cmax ATP of +ve

Entry NC(=O)N1c2ccccc2C=Cc2ccccc21 [carbamazepine, reference compound] under hLiMTs had hLiMTs <25x Avg Cmax ATP of +ve

Entry Cc1c(C)c2c(c(C)c1O)CCC(C)(COc1ccc(CC3SC(=O)NC3=O)cc1)O2 (stereo not shown) [troglitazone, reference compound] under hLiMTs had hLiMTs <25x Avg Cmax ATP of +ve

Entry CC(=O)N1CCN(c2ccc(OCC3COC(Cn4ccnc4)(c4ccc(Cl)cc4Cl)O3)cc2)CC1 (stereo not shown) [ketoconazole, reference compound] under hLiMTs had hLiMTs <25x Avg Cmax ATP of +ve

Entry CC(C)(C)NCC(O)COc1cccc2c1CC(O)C(O)C2 (stereo not shown) under hLiMTs had hLiMTs <25x Avg Cmax ATP of -ve

Next:
Entry CN(C)CCC(c1ccc(Cl)cc1)c1ccccn1 (stereo not shown) under hLiMTs had hLiMTs <25x Avg Cmax ATP of -ve

Entry CC(COc1ccccc1)N(CCCl)Cc1ccccc1 (stereo not shown) under hLiMTs had hLiMTs <25x Avg Cmax ATP of -ve

Entry `CC(=O)Oc1ccccc1C(=O)O` under hLiMTs had hLiMTs <25x Avg Cmax ATP of +ve

Entry Cc1c(-c2ccccc2)oc2c(C(=O)OCCN3CCCCC3)cccc2c1=O [flavoxate] under hLiMTs had hLiMTs <25x Avg Cmax ATP of -ve

Entry CCN(CC)CC#CCOC(=O)C(O)(c1ccccc1)C1CCCCC1 (stereo not shown) under hLiMTs had hLiMTs <25x Avg Cmax ATP of -ve
